The measurements presented in this section are drawn from patent US20260138992A1.

format: physicochemical; details: Group 4, 40° C./75% RH-5 days
Parameter Measured: HPLC purity (%)
Supply the numeric figure in %, leaving out any unit text.

query: // lookup HPLC purity for COc1ccc2[nH]c3c(c2c1)CCN[C@]31CS[C@@H]2c3c(OC(C)=O)c(C)c4c(c3[C@H](COC1=O)N1[C@@H]2[C@H]2c3c(cc(C)c(OC)c3O)C[C@@H]([C@@H]1O)N2C)OCO4 [crystal form B, lurbinectedin, reference compound]
result: 99.13

query: // lookup HPLC purity for COc1ccc2[nH]c3c(c2c1)CCN[C@]31CS[C@@H]2c3c(OC(C)=O)c(C)c4c(c3[C@H](COC1=O)N1[C@@H]2[C@H]2c3c(cc(C)c(OC)c3O)C[C@@H]([C@@H]1O)N2C)OCO4 [crystal form III, lurbinectedin]
result: 99.48

query: // lookup HPLC purity for COc1ccc2[nH]c3c(c2c1)CCN[C@]31CS[C@@H]2c3c(OC(C)=O)c(C)c4c(c3[C@H](COC1=O)N1[C@@H]2[C@H]2c3c(cc(C)c(OC)c3O)C[C@@H]([C@@H]1O)N2C)OCO4 [crystal form IV, lurbinectedin]
result: 99.79

query: // lookup HPLC purity for COc1ccc2[nH]c3c(c2c1)CCN[C@]31CS[C@@H]2c3c(OC(C)=O)c(C)c4c(c3[C@H](COC1=O)N1[C@@H]2[C@H]2c3c(cc(C)c(OC)c3O)C[C@@H]([C@@H]1O)N2C)OCO4 [crystal form II, lurbinectedin]
result: 99.41

* * *

Would you kindly list HPLC purity for each of these compounds?
assay type: physicochemical; details: Group 5, 40° C./75% RH-10 days
Supply the numeric figure in %, leaving out any unit text.

query: // lookup HPLC purity for COc1ccc2[nH]c3c(c2c1)CCN[C@]31CS[C@@H]2c3c(OC(C)=O)c(C)c4c(c3[C@H](COC1=O)N1[C@@H]2[C@H]2c3c(cc(C)c(OC)c3O)C[C@@H]([C@@H]1O)N2C)OCO4 [crystal form II, lurbinectedin]
result: 99.41

query: // lookup HPLC purity for COc1ccc2[nH]c3c(c2c1)CCN[C@]31CS[C@@H]2c3c(OC(C)=O)c(C)c4c(c3[C@H](COC1=O)N1[C@@H]2[C@H]2c3c(cc(C)c(OC)c3O)C[C@@H]([C@@H]1O)N2C)OCO4 [crystal form B, lurbinectedin, reference compound]
result: 99.24

query: // lookup HPLC purity for COc1ccc2[nH]c3c(c2c1)CCN[C@]31CS[C@@H]2c3c(OC(C)=O)c(C)c4c(c3[C@H](COC1=O)N1[C@@H]2[C@H]2c3c(cc(C)c(OC)c3O)C[C@@H]([C@@H]1O)N2C)OCO4 [crystal form IV, lurbinectedin]
result: 99.78

query: // lookup HPLC purity for COc1ccc2[nH]c3c(c2c1)CCN[C@]31CS[C@@H]2c3c(OC(C)=O)c(C)c4c(c3[C@H](COC1=O)N1[C@@H]2[C@H]2c3c(cc(C)c(OC)c3O)C[C@@H]([C@@H]1O)N2C)OCO4 [crystal form III, lurbinectedin]
result: 99.37

* * *

type: physicochemical; conditions: Group 3, 25° C./60% RH-10 days
Would you kindly list HPLC purity for each of these molecules?
Supply the numeric figure in %, leaving out any unit text.

query: // lookup HPLC purity for COc1ccc2[nH]c3c(c2c1)CCN[C@]31CS[C@@H]2c3c(OC(C)=O)c(C)c4c(c3[C@H](COC1=O)N1[C@@H]2[C@H]2c3c(cc(C)c(OC)c3O)C[C@@H]([C@@H]1O)N2C)OCO4 [crystal form III, lurbinectedin]
result: 99.42

query: // lookup HPLC purity for COc1ccc2[nH]c3c(c2c1)CCN[C@]31CS[C@@H]2c3c(OC(C)=O)c(C)c4c(c3[C@H](COC1=O)N1[C@@H]2[C@H]2c3c(cc(C)c(OC)c3O)C[C@@H]([C@@H]1O)N2C)OCO4 [crystal form II, lurbinectedin]
result: 99.41

query: // lookup HPLC purity for COc1ccc2[nH]c3c(c2c1)CCN[C@]31CS[C@@H]2c3c(OC(C)=O)c(C)c4c(c3[C@H](COC1=O)N1[C@@H]2[C@H]2c3c(cc(C)c(OC)c3O)C[C@@H]([C@@H]1O)N2C)OCO4 [crystal form B, lurbinectedin, reference compound]
result: 99.05

query: // lookup HPLC purity for COc1ccc2[nH]c3c(c2c1)CCN[C@]31CS[C@@H]2c3c(OC(C)=O)c(C)c4c(c3[C@H](COC1=O)N1[C@@H]2[C@H]2c3c(cc(C)c(OC)c3O)C[C@@H]([C@@H]1O)N2C)OCO4 [crystal form IV, lurbinectedin]
result: 99.74

* * *

assay type: physicochemical; settings: Group 6, sealed and stored at −20° C. for 120 days
Parameter Measured: HPLC purity (%)
Supply the numeric figure in %, leaving out any unit text.

query: // lookup HPLC purity for COc1ccc2[nH]c3c(c2c1)CCN[C@]31CS[C@@H]2c3c(OC(C)=O)c(C)c4c(c3[C@H](COC1=O)N1[C@@H]2[C@H]2c3c(cc(C)c(OC)c3O)C[C@@H]([C@@H]1O)N2C)OCO4 [crystal form IV, lurbinectedin]
result: 99.91

query: // lookup HPLC purity for COc1ccc2[nH]c3c(c2c1)CCN[C@]31CS[C@@H]2c3c(OC(C)=O)c(C)c4c(c3[C@H](COC1=O)N1[C@@H]2[C@H]2c3c(cc(C)c(OC)c3O)C[C@@H]([C@@H]1O)N2C)OCO4 [crystal form II, lurbinectedin]
result: 99.58

query: // lookup HPLC purity for COc1ccc2[nH]c3c(c2c1)CCN[C@]31CS[C@@H]2c3c(OC(C)=O)c(C)c4c(c3[C@H](COC1=O)N1[C@@H]2[C@H]2c3c(cc(C)c(OC)c3O)C[C@@H]([C@@H]1O)N2C)OCO4 [crystal form III, lurbinectedin]
result: 99.60

query: // lookup HPLC purity for COc1ccc2[nH]c3c(c2c1)CCN[C@]31CS[C@@H]2c3c(OC(C)=O)c(C)c4c(c3[C@H](COC1=O)N1[C@@H]2[C@H]2c3c(cc(C)c(OC)c3O)C[C@@H]([C@@H]1O)N2C)OCO4 [crystal form B, lurbinectedin, reference compound]
result: 99.60

* * *

format: physicochemical; conditions: 10 days under long-term (25° C./60% RH) and accelerated (40° C./75% RH) conditions

{"columns": ["Compound", "XRPD crystal form"],
 "data": [
  ["COc1ccc2[nH]c3c(c2c1)CCN[C@]31CS[C@@H]2c3c(OC(C)=O)c(C)c4c(c3[C@H](COC1=O)N1[C@@H]2[C@H]2c3c(cc(C)c(OC)c3O)C[C@@H]([C@@H]1O)N2C)OCO4 [crystal form B, lurbinectedin, reference compound]", "remained unchanged"],
  ["COc1ccc2[nH]c3c(c2c1)CCN[C@]31CS[C@@H]2c3c(OC(C)=O)c(C)c4c(c3[C@H](COC1=O)N1[C@@H]2[C@H]2c3c(cc(C)c(OC)c3O)C[C@@H]([C@@H]1O)N2C)OCO4 [crystal form IV, lurbinectedin]", "remained unchanged"],
  ["COc1ccc2[nH]c3c(c2c1)CCN[C@]31CS[C@@H]2c3c(OC(C)=O)c(C)c4c(c3[C@H](COC1=O)N1[C@@H]2[C@H]2c3c(cc(C)c(OC)c3O)C[C@@H]([C@@H]1O)N2C)OCO4 [crystal form II, lurbinectedin]", "remained unchanged"],
  ["COc1ccc2[nH]c3c(c2c1)CCN[C@]31CS[C@@H]2c3c(OC(C)=O)c(C)c4c(c3[C@H](COC1=O)N1[C@@H]2[C@H]2c3c(cc(C)c(OC)c3O)C[C@@H]([C@@H]1O)N2C)OCO4 [crystal form III, lurbinectedin]", "remained unchanged"]
]}

* * *

format: physicochemical; details: after 10 days at 25° C./60% RH and 40° C./75% RH

{"columns": ["Molecule", "product purity"],
 "data": [
  ["COc1ccc2[nH]c3c(c2c1)CCN[C@]31CS[C@@H]2c3c(OC(C)=O)c(C)c4c(c3[C@H](COC1=O)N1[C@@H]2[C@H]2c3c(cc(C)c(OC)c3O)C[C@@H]([C@@H]1O)N2C)OCO4 [crystal form IV, lurbinectedin]", "above 99%"],
  ["COc1ccc2[nH]c3c(c2c1)CCN[C@]31CS[C@@H]2c3c(OC(C)=O)c(C)c4c(c3[C@H](COC1=O)N1[C@@H]2[C@H]2c3c(cc(C)c(OC)c3O)C[C@@H]([C@@H]1O)N2C)OCO4 [crystal form II, lurbinectedin]", "above 99%"],
  ["COc1ccc2[nH]c3c(c2c1)CCN[C@]31CS[C@@H]2c3c(OC(C)=O)c(C)c4c(c3[C@H](COC1=O)N1[C@@H]2[C@H]2c3c(cc(C)c(OC)c3O)C[C@@H]([C@@H]1O)N2C)OCO4 [crystal form III, lurbinectedin]", "above 99%"]
]}
